Hey, just so you know, these numbers are from patent US20240279318A1.

Catalogue of pKd readings, one per entry.
# experimental-system: T1, AFP158/HLA-A*02:01 complex (human)
# T1 construct: biotinylated on the BSP by BirA for ELISA and panning; also called biotinylated AFP158/HLA-A*02:01 complex; Bio-AFP158
# experimental-protocol: SPR, crude scFv captured;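 further: Peptide–MHC complex flowed at several concentrations over sensorchip-captured scFv, Kd derived from on- and off-rates obtained from the association and dissociation curves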
Interpret pKd as the negative base-10 log of the concentration measured in mol/L.

{"binder": "AS170036 VL1VH1-VHG108S (scFv) scFv: QSALTQPRSVSGSPGQSVTISCAGTSSDVGSENYVSWYQQHPGKAPKLMIYQVNKRASGVPDRFSGSKSGNTASLTISGLQAEDEADYYCASYRSSDHNIVFGGGTKLTVLGGGGSGGGGSGGGGSEVQLVESGGGLVQPGGSLRLSCAASGFTFSSYAMSWVRQAPGKGLEWVSTINSGTGSPYYADSVKGRFTISRDNSKNTLYLQMNSLRAEDTAVYYCAKNFFDGSWFLSPPAMDYWGQGTLVTVSSHHHHHH", "pKd": 7.02}

pKd lookup needed for AS170036 VL1VH1 HP58M (scFv) scFv: QSALTQPRSVSGSPGQSVTISCAGTSSDVGSENYVSWYQQHPGKAPKLMIYQVNKRASGVPDRFSGSKSGNTASLTISGLQAEDEADYYCASYRSSDHNIVFGGGTKLTVLGGGGSGGGGSGGGGSEVQLVESGGGLVQPGGSLRLSCAASGFTFSSYAMSWVRQAPGKGLEWVSTINSGTGSMYYADSVKGRFTISRDNSKNTLYLQMNSLRAEDTAVYYCAKNFFDGSWFLGPPAMDYWGQGTLVTVSSHHHHHH , thanks. 5.82

Then AS170036 VL1VH1 HP58G (scFv) scFv: QSALTQPRSVSGSPGQSVTISCAGTSSDVGSENYVSWYQQHPGKAPKLMIYQVNKRASGVPDRFSGSKSGNTASLTISGLQAEDEADYYCASYRSSDHNIVFGGGTKLTVLGGGGSGGGGSGGGGSEVQLVESGGGLVQPGGSLRLSCAASGFTFSSYAMSWVRQAPGKGLEWVSTINSGTGSGYYADSVKGRFTISRDNSKNTLYLQMNSLRAEDTAVYYCAKNFFDGSWFLGPPAMDYWGQGTLVTVSSHHHHHH ? 6.49

Record: AS170036 VL1VH1 HP110D (scFv) scFv: QSALTQPRSVSGSPGQSVTISCAGTSSDVGSENYVSWYQQHPGKAPKLMIYQVNKRASGVPDRFSGSKSGNTASLTISGLQAEDEADYYCASYRSSDHNIVFGGGTKLTVLGGGGSGGGGSGGGGSEVQLVESGGGLVQPGGSLRLSCAASGFTFSSYAMSWVRQAPGKGLEWVSTINSGTGSPYYADSVKGRFTISRDNSKNTLYLQMNSLRAEDTAVYYCAKNFFDGSWFLGPDAMDYWGQGTLVTVSSHHHHHH 6.27

And then AS170036 VL1VH1-VHS57K (scFv) scFv: QSALTQPRSVSGSPGQSVTISCAGTSSDVGSENYVSWYQQHPGKAPKLMIYQVNKRASGVPDRFSGSKSGNTASLTISGLQAEDEADYYCASYRSSDHNIVFGGGTKLTVLGGGGSGGGGSGGGGSEVQLVESGGGLVQPGGSLRLSCAASGFTFSSYAMSWVRQAPGKGLEWVSTINSGTGKPYYADSVKGRFTISRDNSKNTLYLQMNSLRAEDTAVYYCAKNFFDGSWFLGPPAMDYWGQGTLVTVSSHHHHHH , what is it? 7.25

Entry AS170036 VL1VH1 HW105M (scFv) scFv: QSALTQPRSVSGSPGQSVTISCAGTSSDVGSENYVSWYQQHPGKAPKLMIYQVNKRASGVPDRFSGSKSGNTASLTISGLQAEDEADYYCASYRSSDHNIVFGGGTKLTVLGGGGSGGGGSGGGGSEVQLVESGGGLVQPGGSLRLSCAASGFTFSSYAMSWVRQAPGKGLEWVSTINSGTGSPYYADSVKGRFTISRDNSKNTLYLQMNSLRAEDTAVYYCAKNFFDGSMFLGPPAMDYWGQGTLVTVSSHHHHHH please 5.92

What do you get for AS170036 VL1VH1 HL107Q (scFv) scFv: QSALTQPRSVSGSPGQSVTISCAGTSSDVGSENYVSWYQQHPGKAPKLMIYQVNKRASGVPDRFSGSKSGNTASLTISGLQAEDEADYYCASYRSSDHNIVFGGGTKLTVLGGGGSGGGGSGGGGSEVQLVESGGGLVQPGGSLRLSCAASGFTFSSYAMSWVRQAPGKGLEWVSTINSGTGSPYYADSVKGRFTISRDNSKNTLYLQMNSLRAEDTAVYYCAKNFFDGSWFQGPPAMDYWGQGTLVTVSSHHHHHH ? 5.80

And then AS170036 VL1VH1 HS53T (scFv) scFv: QSALTQPRSVSGSPGQSVTISCAGTSSDVGSENYVSWYQQHPGKAPKLMIYQVNKRASGVPDRFSGSKSGNTASLTISGLQAEDEADYYCASYRSSDHNIVFGGGTKLTVLGGGGSGGGGSGGGGSEVQLVESGGGLVQPGGSLRLSCAASGFTFSSYAMSWVRQAPGKGLEWVSTINTGTGSPYYADSVKGRFTISRDNSKNTLYLQMNSLRAEDTAVYYCAKNFFDGSWFLGPPAMDYWGQGTLVTVSSHHHHHH , what is it? 6.19

What do you get for AS170036 VL1VH1-VHG56N (scFv) scFv: QSALTQPRSVSGSPGQSVTISCAGTSSDVGSENYVSWYQQHPGKAPKLMIYQVNKRASGVPDRFSGSKSGNTASLTISGLQAEDEADYYCASYRSSDHNIVFGGGTKLTVLGGGGSGGGGSGGGGSEVQLVESGGGLVQPGGSLRLSCAASGFTFSSYAMSWVRQAPGKGLEWVSTINSGTNSPYYADSVKGRFTISRDNSKNTLYLQMNSLRAEDTAVYYCAKNFFDGSWFLGPPAMDYWGQGTLVTVSSHHHHHH ? 7.04
